Below, each entry is listed with its recorded Inhibition rate, %.
# Tested on: glucosyltransferase
# Procedure details: Glucosyltransferase inhibition activity (insoluble glucan, absorbance at 550 nm)
# Type: biochemical, S. mutans MT8148
# Condition notes: 0.15 ml of 2,000 ppm sample solution in 3 ml total volume; pH 6.0, 37° C., 3 hours; control water
// units = %; emit number, no label

The following molecules have reported results that may help.
Molecule: Oc1cc(O)c2c(c1)O[C@H](c1cc(O)c(O)c(O)c1)[C@H](O)C2 [Epigallocatechin]
Study target: glucosyltransferase
Inhibition rate, % [%]: 11

Molecule: Oc1cc(O)c2c(c1)OC(c1ccc(O)c(O)c1)C(O)C2 (centres unmarked)
Study target: glucosyltransferase
Inhibition rate, % [%]: 13

Molecule: Oc1cc(O)c2c(c1)O[C@H](c1ccc(O)c(O)c1)[C@H](O)C2 [Epicatechin]
Study target: glucosyltransferase
Inhibition rate, % [%]: 14

Molecule: Oc1cc(O)c2c(c1)O[C@H](c1cc(O)c(O)c(O)c1)[C@@H](O)C2
Study target: glucosyltransferase
Inhibition rate, % [%]: 15

*Q* # get_value(readout='Inhibition rate, %', item= O=C(O[C@@H]1Cc2c(O)cc(O)cc2O[C@@H]1c1ccc(O)c(O)c1)c1cc(O)c(O)c(O)c1 [Epicatechin gallate] )
*A* 19

// data source = patent US5409692A
